Molecular target: Thrombin (Homo sapiens, UniProt P00734)
Construct: Thrombin; 0.2 μM in 50% glycerol (7.34 μg/mL)
Experiment: Dose response assay for protease inhibitors: thrombin
Type: biochemical
Details: ratio versus Factor XIa
test-readout: Ratio: Thrombin/FXIa

Below, 6 molecules whose answers are already recorded.
# smi, experimental-result
records = [
    ("CC[C@@H](NC(=O)N1C(=O)[C@H](Cc2ccnc(N)c2)[C@H]1C(=O)N(C)c1cccc(Cl)c1)c1cccc(Cl)c1", "G (“G” indicates 1-100)"),
    ("Cc1ccccc1N(C)C(=O)[C@@H]1[C@@H](Cc2ccnc(N)c2)C(=O)N1C(=O)N[C@@H](C1CCCCC1)C(F)(F)F", "G (“G” indicates 1-100)"),
    ("CC[C@@H](NC(=O)N1C(=O)[C@H](Cc2ccnc(N)c2)[C@H]1C(=O)N(C)c1ccccc1)C1CC1", "G (“G” indicates 1-100)"),
    ("CC[C@@H](NC(=O)N1C(=O)[C@H](Cc2ccnc(N)c2)[C@H]1C(=O)N(C)c1ncccn1)c1ccccc1", "I (“I” indicates >500)"),
    ("CC[C@@H](NC(=O)N1C(=O)[C@H](Cc2ccnc(N)c2)[C@H]1C(=O)N(C)c1ccncc1)C1CCCCC1", "I (“I” indicates >500)"),
    ("CCC[C@@H](NC(=O)N1C(=O)[C@H](Cc2ccnc(N)c2)[C@H]1C(=O)N(C)c1ccccc1)C1CCCCC1", "G (“G” indicates 1-100)"),
]

Exercise: Find the measured Ratio: Thrombin/FXIa: item CN(C(=O)[C@@H]1[C@@H](Cc2ccnc(N)c2)C(=O)N1C(=O)N[C@@H](C1CCCCC1)C(F)(F)F)c1cccc(F)c1 , target or system Thrombin (Homo sapiens, UniProt P00734).
Solution: G (“G” indicates 1-100)

====

Experiment: Caco-2 cell permeability assay (A-B and B-A)
Format: in vitro ADME
Details: human, B-A direction
test-readout: Papp B→A at 40 min, 10 μM

# compound, test-readout, experimental-result
measured = [
    ("CC[C@@H](NC(=O)N1C(=O)[C@H](Cc2ccnc(NC(=O)OC(C)(C)C)c2)[C@H]1C(=O)N(C)c1ccncc1)c1cccc(Cl)c1 [Compound 127]", "Papp B→A at 40 min, 10 μM", "≤ 10 ×10⁻⁶ cm/s"),
    ("CC[C@@H](NC(=O)N1C(=O)[C@H](Cc2ccnc(N)c2)[C@H]1C(=O)N(C)c1ncccn1)c1cccnc1 [Compound 61]", "Papp B→A at 40 min, 10 μM", "11 to 30 ×10⁻⁶ cm/s"),
    ("CN(C(=O)[C@@H]1[C@@H](Cc2ccnc(N)c2)C(=O)N1C(=O)N[C@@H](C1CCCCC1)C(F)(F)F)c1ccncc1 [Compound 18]", "Papp B→A at 40 min, 10 μM", "11 to 30 ×10⁻⁶ cm/s"),
    ("CC[C@@H](NC(=O)N1C(=O)[C@H](Cc2ccnc(N)c2)[C@H]1C(=O)N(C)c1ccccc1)c1cccc(Cl)c1 [Compound 115]", "Papp B→A at 40 min, 10 μM", "≤ 10 ×10⁻⁶ cm/s"),
    ("CC[C@@H](NC(=O)N1C(=O)[C@H](Cc2ccnc(N)c2)[C@H]1C(=O)N(C)c1ccncc1)c1cccnc1 [Compound 59]", "Papp B→A at 40 min, 10 μM", "≤ 10 ×10⁻⁶ cm/s"),
]

Exercise: Give its Papp B→A at 40 min, 10 μM value. Item: CN(C(=O)[C@@H]1[C@@H](Cc2ccnc(N)c2)C(=O)N1C(=O)N[C@@H](C1CC1)C(F)(F)F)c1ncccn1 [Compound 78]
Solution: > 50 ×10⁻⁶ cm/s

Exercise: Give its Papp B→A at 40 min, 10 μM value. Item: C[C@@H](NC(=O)N1C(=O)[C@H](Cc2ccnc(N)c2)[C@H]1C(=O)N(C)c1ccccc1)C1CCCCC1 [Compound 49]
Solution: 11 to 30 ×10⁻⁶ cm/s

Exercise: Give its Papp B→A at 40 min, 10 μM value. Item: CC[C@@H](NC(=O)N1C(=O)[C@H](Cc2ccnc(N)c2)[C@H]1C(=O)N(C)c1ncccn1)C1CCCCC1 [Compound 37]
Solution: 11 to 30 ×10⁻⁶ cm/s

Exercise: Give its Papp B→A at 40 min, 10 μM value. Item: CCN(C(=O)[C@@H]1[C@@H](Cc2ccnc(N)c2)C(=O)N1C(=O)N[C@@H](C1CCCCC1)C(F)(F)F)c1ccccc1 [Compound 24]
Solution: ≤ 10 ×10⁻⁶ cm/s

Exercise: Give its Papp B→A at 40 min, 10 μM value. Item: CN(C(=O)[C@@H]1[C@@H](Cc2ccnc(N)c2)C(=O)N1C(=O)N[C@@H](C1CCCCC1)C(F)(F)F)c1cc(Cl)cc(Cl)c1 [Compound 23]
Solution: ≤ 10 ×10⁻⁶ cm/s

Exercise: Give its Papp B→A at 40 min, 10 μM value. Item: CCC[C@@H](NC(=O)N1C(=O)[C@H](Cc2ccnc(N)c2)[C@H]1C(=O)N(C)c1ccccc1)C1CCCCC1 [Compound 50]
Solution: ≤ 10 ×10⁻⁶ cm/s

Exercise: Give its Papp B→A at 40 min, 10 μM value. Item: CN(C(=O)[C@@H]1[C@@H](Cc2ccnc(N)c2)C(=O)N1C(=O)N[C@@H](C1CCCCC1)C(F)(F)F)c1cccc(F)c1 [Compound 22]
Solution: ≤ 10 ×10⁻⁶ cm/s

Exercise: Give its Papp B→A at 40 min, 10 μM value. Item: CN(C(=O)[C@@H]1[C@@H](Cc2ccnc(N)c2)C(=O)N1C(=O)N[C@@H](C1CCCCC1)C1CC1)c1ccncc1 [Compound 52]
Solution: 31 to 50 ×10⁻⁶ cm/s
